Below, each entry is listed with its recorded pIC50.
- assay_target: human IDO1 (Homo sapiens, UniProt P14902)
- Sequence (P14902 whole entry): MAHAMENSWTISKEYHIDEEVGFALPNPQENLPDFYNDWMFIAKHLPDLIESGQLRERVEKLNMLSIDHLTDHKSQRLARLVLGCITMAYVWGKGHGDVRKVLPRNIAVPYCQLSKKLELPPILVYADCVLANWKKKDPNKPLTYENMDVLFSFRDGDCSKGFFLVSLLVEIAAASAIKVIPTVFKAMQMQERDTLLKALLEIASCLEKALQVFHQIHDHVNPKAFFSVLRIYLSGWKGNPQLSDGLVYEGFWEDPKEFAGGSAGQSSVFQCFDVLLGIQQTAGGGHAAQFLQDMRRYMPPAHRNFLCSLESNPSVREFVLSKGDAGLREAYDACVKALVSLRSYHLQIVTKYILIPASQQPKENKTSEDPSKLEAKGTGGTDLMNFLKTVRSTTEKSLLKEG
- assay_info: Assessment of human IDO-1 inhibitory activity in HEK cells (human IDO1/HEK293 cells, kynurenine read-out with Ehrlich reagent, absorbance 490 nm)
- Assay type: cell-based
- Design: expressed in transfected cells
- test_conditions: HEK Human IDO-1 cellular assay
pIC50: −log10 of the molar value.

Example molecules with recorded pIC50:
CC(C)CN(c1ccc(C(CC(=O)O)C2CC2)cc1NC(=O)Nc1ccc(Cl)cc1F)C1CCOCC1 (racemic) [Example 1198]; > 8.30
CCOc1ncc(Nc2cc([C@H](CC)CC(=O)O)ccc2N(CC2CC2)CC(C)(C)O)cn1 (single isomer, unassigned); > 7.30

Note pIC50 for the molecule shown: CCC(CC(=O)O)c1ccc(N(CC2CC2)C2CCOCC2)c(Nc2ccc3c(c2)OC(F)(F)O3)c1 (single isomer, unassigned)
> 7.30

Specify reported pIC50 for the molecule shown: CC[C@@H](CC(=O)O)c1ccc(N(CC)C2CCOCC2)c(Nc2ccc(Cl)cc2)c1 (single isomer, unassigned)
> 8.30

Retrieve pIC50 measured for COCC(CC(=O)O)c1ccc(N(CC(C)C)C2CCOCC2)c(NC(=O)Nc2ccc(OC(F)(F)F)cc2)c1 (single isomer, unassigned) and print it.
< 7.30

---

- assay_target: human IDO1 (Homo sapiens, UniProt P14902)
- assay_info: Assessment of human IDO-1 inhibitory activity in HEK cells (human IDO1/HEK293 cells, kynurenine read-out with Ehrlich reagent, absorbance 490 nm)
- Format: cell-based
- Parameters: expressed in transfected cells
- test_conditions: HEK Human IDO-1 cellular assay
property_measured: IC50

Quickly give me recorded IC50 for CC[C@H](CC(=O)O)c1ccc(N(CC)C2CCOCC2)c(Nc2ccc(C#N)cc2)c1 (single isomer, unassigned) [Example 501]
< 0.005 µM

Hello, please tell me recorded IC50 for this one: CCC(CC(=O)O)c1cc(F)c(N(CC(C)C)CC(C)C)c(Nc2ccc(Cl)c(OCC(F)(F)F)c2)c1 (single isomer, unassigned) [Example 118]
< 0.05 µM

Provide one value: measured IC50 of COCC(CC(=O)O)c1cc(F)c(N(CC(C)C)CC(C)C)c(NC(=O)Cc2ccc(C)cc2)c1 (single isomer, unassigned) [Example 1190]
< 0.005 µM

Kindly indicate its recorded IC50. Item: CC[C@H](CC(=O)O)c1ccc(N2CCC[C@@H]2C(C)(C)O)c(Nc2ccc(Cl)cc2)c1 (single isomer, unassigned) [Example 780]
< 0.005 µM

Provide only the value of recorded IC50 for CCN(c1ccc(C(CC(=O)O)c2ccccc2)cc1NC(=O)Nc1ccc(OC)cc1F)C1CCOCC1 (single isomer, unassigned) [Example 586]
> 0.05 µM

---

- assay_target: human IDO1 (Homo sapiens)
- assay_info: Assessment of human IDO-1 inhibitory activity in HEK cells (human IDO1/HEK293 cells, kynurenine read-out with Ehrlich reagent, absorbance 490 nm)
- Type: cell-based
- Parameters: expressed in transfected cells
- test_conditions: HEK Human IDO-1 cellular assay
pIC50: −log10 of the molar value.
property_measured: pIC50

CCN(c1ccc([C@@H](COC)CC(=O)O)cc1NC(=O)Nc1ccc(C)cc1)C1CCOCC1 (single isomer, unassigned) [Example 433]; < 7.30
CC[C@H](CC(=O)O)c1ccc(N(CC)C2CCOCC2)c(Nc2cnc(OC)nc2)c1 (single isomer, unassigned) [Example 519]; > 8.30
CCC(CC(=O)O)c1cc(NC(=O)Nc2ccc3c(c2)OCO3)c(N(CC(C)C)CC(C)C)cc1F (racemic) [Example 1134]; > 8.30
CC[C@H](CC(=O)O)c1ccc(N(CC2CC2)CC(C)(C)O)c(Nc2ccc(C#N)cc2)c1 (single isomer, unassigned) [Example 272]; > 8.30

Dear colleague, please send me the reported pIC50 for CCC(CC(=O)O)c1cc(F)c(N(CC(C)C)CC(C)C)c(Nc2ccc(Cl)c(OCC(F)(F)F)c2)c1 (single isomer, unassigned) [Example 102] when you can.
> 8.30

Answer with the recorded pIC50 for the molecule listed here: CCC(CC(=O)O)c1ccc(N2C[C@@H]3C[C@H]2CN3C(=O)OC(C)(C)C)c(Nc2ccc(C)cc2)c1 (single isomer, unassigned) [Example 447]
> 7.30

Entry CCC(CC(=O)O)c1ccc(N(CC(C)C)C2CCCCC2)c(NC(=O)Cc2ccc(Cl)cc2F)c1 (racemic) [Example 1085] needs its pIC50 filled in; supply it.
> 8.30

Quickly give me recorded pIC50 for CCC(CC(=O)O)c1cc(NC(=O)Nc2cc(C)no2)c(N(CC(C)C)C2CCCCC2)cc1F (racemic) [Example 1113]
> 8.30

Hello, please tell me recorded pIC50 for this one: CC[C@@H](CC(=O)O)c1ccc(N2CCC[C@@H]2C(C)(C)O)c(Nc2ccc(C#N)cc2)c1 (single isomer, unassigned) [Example 771]
> 7.30

Quickly give me recorded pIC50 for CCCN(CC1CC1)c1ccc(C(CC)CC(=O)O)cc1Nc1ccc2c(c1)OC(F)(F)O2 (single isomer, unassigned) [Example 662]
> 8.30

Input CCC(CC(=O)O)c1cc(NC(=O)Nc2ccc(C)cc2F)c(N(CC(C)C)C2CCCCC2)cc1F (single isomer, unassigned) [Example 1120] , output reported pIC50.
> 8.30

Consider the molecule CCOc1ncc(Nc2cc([C@H](CC)CC(=O)O)ccc2N(CC(C)(C)O)C2CCCCC2)cn1 (single isomer, unassigned) [Example 240] and give its recorded pIC50.
> 7.30

Using the record for COCC(CC(=O)O)c1ccc(N(CC2CC2)C2CCOCC2)c(NC(=O)Nc2ccc(C)cc2)c1 (single isomer, unassigned) [Example 676] , state its measured pIC50.
< 7.30

For COCC(CC(=O)O)c1ccc(N(CC(C)C)C2CCCCC2)c(NC(=O)Cc2ccc(C)cc2)c1 (single isomer, unassigned) [Example 1237] , write its pIC50.
> 7.30

Provide one value: measured pIC50 of CCN(c1ccc(C(C)CC(=O)O)cc1Nc1cnc(C)nc1)C1CCOCC1 (single isomer, unassigned) [Example 636]
< 7.30

// Input: CCOc1ccc(NC(=O)Nc2cc(C(CC)CC(=O)O)c(F)cc2N(CC(C)C)C2CCCCC2)cc1 (racemic) [Example 952] . Output its pIC50 only.
> 8.30

Supply measured pIC50 of COCC(CC(=O)O)c1cc(F)c(N(CC(C)C)C2CCCCC2)c(NC(=O)Nc2ccc(OC(F)(F)F)cc2)c1 (single isomer, unassigned) [Example 1154] in your reply.
> 7.30

Consider the molecule CCC(CC(=O)O)c1cc(F)c(N(CC(C)C)CC(C)C)c(Nc2ccc(Cl)cc2)c1 (single isomer, unassigned) [Example 99] and give its recorded pIC50.
> 8.30

State, in one line, measured pIC50 of CC(CC(=O)O)c1ccc(N(CC(C)(C)O)C2CCCCC2)c(Nc2ccc3c(c2)OC(F)(F)O3)c1 (single isomer, unassigned) [Example 53]
> 8.30

Give recorded pIC50. COCC(CC(=O)O)c1ccc(N(CC(C)C)C2CCOCC2)c(NC(=O)Nc2ccc(OC)cc2F)c1 (single isomer, unassigned) [Example 1221]
> 7.30

Provide one value: measured pIC50 of CCC(CC(=O)O)c1ccc(N2CCC[C@@H]2COC)c(NC(=O)Cc2ccc(C)cc2)c1 (single isomer, unassigned) [Example 1144]
< 7.30

Determine its reported pIC50: CCC(CC(=O)O)c1ccc(N(CC2CC2)C2CCOCC2)c(Nc2ccc(C#N)cc2)c1 (single isomer, unassigned) [Example 706]
> 8.30

Annotate the molecule CC[C@@H](CC(=O)O)c1ccc(N(CC(C)(C)O)C2CCOCC2)c(Nc2ccc(Cl)c(OCC(F)(F)F)c2)c1 (single isomer, unassigned) [Example 200] with its measured pIC50.
> 7.30

Supply reported pIC50 belonging to this molecule: CCC(CC(=O)O)c1ccc(N(CC(C)C)C2CCCCC2)c(NC(=O)Cc2cc(F)ccc2F)c1 (single isomer, unassigned) [Example 1098 E2]
> 8.30

Identify pIC50 associated with the molecule CCC(CC(=O)O)c1cc(NC(=O)Nc2cnc(C)nc2)c(N(CC(C)C)C2CCCCC2)cc1F (racemic) [Example 1125]
> 8.30

---

- assay_target: human IDO1 (Homo sapiens, UniProt P14902)
- assay_info: Assessment of human IDO-1 inhibitory activity in Hela cells (Interferon-gamma stimulated HeLa cells, Ehrlich reagent, absorbance 490 nm)
- Format: cell-based
- Set-up: endogenous in cells; host or cells: HeLa cells stimulated with interferon-gamma
- test_conditions: Hela Human IDO-1 cellular assay
property_measured: IC50

Some solved entries appear below for comparison.
CCC(CC(=O)O)c1ccc(N2CCOC(C)(C)C2)c(Nc2ccc(Cl)cc2)c1 (single isomer, unassigned) [Example 1319 E1]; < 50 nM
CCN(c1ccc([C@@H](COC(C)C)CC(=O)O)cc1Nc1ccc(C#N)cc1)C1CCOCC1 (single isomer, unassigned) [Example 324]; < 50 nM

Find IC50 for CC(C)CN(CC(C)C)c1ccc(C(C)(C)CC(=O)O)cc1Nc1ccc(Cl)cc1 [Example 145] on human IDO1 (Homo sapiens, UniProt P14902) and write it down.
< 5 nM

Recall the reported IC50 of CCOc1ncc(Nc2cc(C(CC)CC(=O)O)ccc2N(CC)C2CCCOC2)cn1 (single isomer, unassigned) [Example 63] on human IDO1 (Homo sapiens, UniProt P14902) and write it down.
< 5 nM

Report its IC50 with human IDO1 (Homo sapiens, UniProt P14902) as the test system: COCC(CC(=O)O)c1ccc(N(C)C2CCOCC2)c(Nc2ccc(C#N)cc2)c1 (single isomer, unassigned) [Example 873]
< 50 nM

Specify the recorded IC50 for CCC(CC(=O)O)c1ccc(N(CCOC)C2CCOCC2)c(Nc2ccc(C#N)cc2)c1 (single isomer, unassigned) [Example 1258] , system: human IDO1 (Homo sapiens, UniProt P14902).
< 5 nM

Write IC50 of CC[C@H](CC(=O)O)c1ccc(N(CC)C2CCOCC2)c(Nc2ccc(OC)cn2)c1 (single isomer, unassigned) [Example 505] ; system used: human IDO1 (Homo sapiens, UniProt P14902)
< 50 nM

Look up and report measured IC50 (human IDO1 (Homo sapiens, UniProt P14902)) for the following compound: CCCN(c1ccc(C(COC)CC(=O)O)cc1Nc1ccc(Cl)cc1)C1CCS(=O)(=O)CC1 (single isomer, unassigned) [Example 183]
< 50 nM

# return IC50 for CCOc1cnc(Nc2cc([C@H](CC)CC(=O)O)ccc2N(CC)C2CCOCC2)cn1 (single isomer, unassigned) [Example 508] , test system: human IDO1 (Homo sapiens, UniProt P14902)
< 5 nM

Enter IC50 (test system human IDO1 (Homo sapiens, UniProt P14902)) for CC[C@@H](CC(=O)O)c1ccc(N(CC)C2CCOCC2)c(Nc2ccc(N(C)C)nc2)c1 (single isomer, unassigned) [Example 463]
> 50 nM

Using human IDO1 (Homo sapiens, UniProt P14902) as the test system, report measured IC50 of CCN(c1ccc(C(COC)CC(=O)O)cc1Nc1ccc(F)cc1)C1CCS(=O)(=O)CC1 (single isomer, unassigned) [Example 172] .
< 50 nM

For human IDO1 (Homo sapiens, UniProt P14902), give IC50 of the listed compound: CCN(c1ccc(C(CC(=O)O)C2CC2)cc1Nc1ccc(OC)nc1)C1CCS(=O)(=O)CC1 (single isomer, unassigned) [Example 342]
< 50 nM

Give measured IC50 for COCC(CC(=O)O)c1ccc(N2C[C@@H]3C[C@H]2CN3C(=O)OC(C)(C)C)c(Nc2ccc(C#N)cc2)c1 (single isomer, unassigned) [Example 451 Diastereomer 1] (human IDO1 (Homo sapiens, UniProt P14902)).
< 50 nM
